Reported fluorescence intensity is given for each of the following compounds.
Experiment: compound fluorescence in toxin protease inhibitor counterscreen, primary screen, artefact control for toxin protease inhibitor project, biochemical, multiplex microsphere, HTS (AID 624483)
Settings: compound autofluorescence counterscreen, microsphere flow cytometry; stronger effect = higher value
The whole screen tested about 360,000 compounds, of which about 11,000 (3.1%) were called active. Roughly 2% stayed inconclusive and do not appear here. The list comes from a sample in which actives are over-represented; it also holds close analogues and randomly drawn compounds.

Reference set, count: 5
Cc1ccccc1S(=O)(=O)NC(=O)C1(C)CCN1C(=O)C1(c2ccccc2)CCCC1 (configuration not stated)	2830 (inactive)
COc1ccc(C(C)C)cc1-c1ccc2nncn2c1	3610 (inactive)
CNN/C(N=Cc1ccc([N+](=O)[O-])s1)=N\S(=O)(=O)c1cc(C)c(Cl)cc1SCc1ccccc1	3540 (inactive)
CCSc1nc(-c2ccc(OC)cc2)cc(-c2ccc(OC)cc2)c1C#N	9530 (inactive)
CSc1ccccc1C(=O)Nc1cccc(C(C)=O)c1	26700 (active)

Item CC(C)C1Cc2[nH][nH]c(=O)c2C(c2ccc(Cl)cc2)O1 (configuration not stated) has what recorded fluorescence intensity?
5700 (inactive)

Item CC(=O)N1CCN(C(=O)c2cc(-c3ccc(C)o3)nc3ccccc23)CC1 has what recorded fluorescence intensity?
7930 (inactive)

Item CCOc1cc(-c2cc(-c3ccc(OC)cc3)nc(N)c2C#N)ccc1O has what recorded fluorescence intensity?
24300 (active)

Item CC(=O)c1cccc(NC(=O)[C@@H](NC(N)=O)C(C)C)c1 has what recorded fluorescence intensity?
3400 (inactive)

Item COc1ccc(-c2ccc(C(=O)NC(C)C)c3occc23)c(C)c1 has what recorded fluorescence intensity?
3110 (inactive)

* * *

Experiment: compound fluorescence in toxin protease inhibitor counterscreen, primary screen, artefact control for toxin protease inhibitor project, biochemical, multiplex microsphere, HTS (AID 624483)
Conditions: compound autofluorescence counterscreen, microsphere flow cytometry
Out of some 360,000 compounds screened, about 11,000 (3.1%) were called active. About 2% were inconclusive and are not listed. No stated cut-off is given here; in the data, active means fluorescence intensity above about 16000; inconclusive means no clear call, values can overlap the other calls; inactive means below that. Many of the other results were omitted from the sample, so actives are more common in it than they were.
Write down one outcome, taken from active, inactive

Could you check what this test reported for Cc1ccc(C(=O)Nc2sc(Cc3ccc4c(c3)OCO4)c(C)c2C(N)=O)cc1 ?
inactive

Could you check what this test reported for COc1ccc(CC(=O)Nc2c(C(N)=O)oc3ccccc23)cc1 ?
inactive

Could you check what this test reported for OC(c1cc(Cl)cc(Cl)c1)c1ncc(-c2ccccc2C(F)(F)F)[nH]1 (stereo unspecified) ?
inactive

Could you check what this test reported for CCSc1nc(=S)n(CC)c(C)c1C(C)=O ?
active

Could you check what this test reported for CCC(C)(C)C1CCC(=NNC(=O)c2ccc(Br)o2)CC1 (stereo unspecified) ?
inactive

Could you check what this test reported for COc1ccc(CC(=O)Nc2sc(Cc3ccccc3)c(C)c2C(N)=O)cc1 ?
active

Could you check what this test reported for N#Cc1ccccc1S(=O)(=O)N1CCN(Cc2c(O)ccc3ccccc23)CC1 ?
inactive

Could you check what this test reported for CC(=O)c1c(N2CCOCC2)nc(=S)n(Cc2ccccc2)c1C ?
inactive

Could you check what this test reported for CC1(C(=O)Nc2cccc3cccnc23)CCN1C(=O)CCC1CCCC1 (stereo unspecified) ?
inactive

Could you check what this test reported for Cc1ccc(F)c(S(=O)(=O)NC(=O)C2(C)CCN2C(=O)c2ccco2)c1 (stereo unspecified) ?
inactive

Could you check what this test reported for CCOC(=O)C1(C)CCCN(C(=O)c2ccc(F)c(Cl)c2)C1 (stereo unspecified) ?
inactive

* * *

Assay: compound fluorescence in toxin protease inhibitor counterscreen, primary screen, artefact control for toxin protease inhibitor project, biochemical, multiplex microsphere, HTS (AID 624483)
Settings: compound autofluorescence counterscreen, microsphere flow cytometry; stronger effect = higher value
The campaign covered roughly 360,000 compounds. About 11,000 (3.1%) were called active. Another 2% or so got no clear call; they are omitted. The sample holds actives, similar compounds and a random draw of the others, so the mix is not that of the screen.
Reported fluorescence intensity is given for each of the following compounds.
Would you mind answering with just the numeric figure?

Item Cc1cccc(OCCNC(=O)CSc2ccc(C(F)(F)F)cc2[N+](=O)[O-])c1 has what recorded fluorescence intensity?
2620

* * *

Assay: compound fluorescence in toxin protease inhibitor counterscreen, primary screen, artefact control for toxin protease inhibitor project, biochemical, multiplex microsphere, HTS (AID 624483)
Details: compound autofluorescence counterscreen, microsphere flow cytometry
The campaign covered roughly 360,000 compounds. About 11,000 (3.1%) were called active. Inconclusive results (about 2%) are left out. No stated cut-off is given here; in the data, active means fluorescence intensity above about 16000; inconclusive means no clear call, values can overlap the other calls; inactive means below that. This is one part of a sample in which actives are shown more often than they occur.
Write down one outcome, taken from Yes for active, No for inactive

CC(=O)Nc1ccc(SCC(=O)NC(=O)c2ccc(Cl)cc2)cc1	No

Could you check what this test reported for Cc1ccc(CN2CC(N3CCC(Cc4ccccc4)CC3)CS2(=O)=O)cc1 (configuration not stated) ?
No

Could you check what this test reported for CC(C)CCNC(=O)CCNS(=O)(=O)c1ccc(Cl)cc1 ?
Yes

Could you check what this test reported for C=CCC[C@@H](CCCCC)OC(=O)/C=C/[C@@H](O)[C@H](O)C[C@H](O)CC=C ?
No

Could you check what this test reported for COC(=O)/C(NC(C)=O)=C(\C)c1ccc(Cl)cc1 ?
Yes

* * *

Experiment: compound fluorescence in toxin protease inhibitor counterscreen, primary screen, artefact control for toxin protease inhibitor project, biochemical, multiplex microsphere, HTS (AID 624483)
Settings: compound autofluorescence counterscreen, microsphere flow cytometry; stronger effect = higher value
Among all 360,000 compounds or so, about 11,000 (3.1%) were called active. Inconclusive results (about 2%) are left out. The entries come from a sample that favours actives as a whole.
TEST_READOUT: fluorescence intensity
Would you mind answering with just the numeric figure?

Item Nc1[nH]c(C(=O)c2ccccc2)c(-c2ccncc2)c1C(=O)NCc1cccc2ccccc12 has what recorded fluorescence intensity?
5030

Item COc1ccc(NC(=O)CN(Cc2ccccc2)S(C)(=O)=O)cc1OC has what recorded fluorescence intensity?
2130

Item COc1ccc(NC(=O)CN(C)S(=O)(=O)c2ccccc2)cc1OC has what recorded fluorescence intensity?
16600

* * *

Assay: compound fluorescence in toxin protease inhibitor counterscreen, primary screen, artefact control for toxin protease inhibitor project, biochemical, multiplex microsphere, HTS (AID 624483)
Conditions: compound autofluorescence counterscreen, microsphere flow cytometry
Screen size: about 360,000 compounds; about 11,000 (3.1%) were called active. Another 2% or so got no clear call; they are omitted. Cut-off read from the data, not from the text of the source: active = fluorescence intensity above about 16000; inconclusive = no clear call, values can overlap the other calls; inactive = below that. For the sample, actives were picked, then their nearest neighbours and some compounds at random.
Write down one outcome, taken from active, inactive

COc1ccc(-c2nc(SCC(=O)N3CCCC3)n[nH]2)cc1	inactive
O=C(CC(=O)N/N=C\c1ccc(F)cc1)NCCc1ccccc1	inactive
CCCOc1ccc(-c2nc(N)n[nH]2)cc1	active
O=C(CN1CCN(C/C=C/c2ccccc2)CC1)Nc1ccc(F)cc1F	inactive

Could you check what this test reported for O=C(CN1CCSCC1)N/N=C/c1ccc(F)cc1 ?
active

Could you check what this test reported for O=C(CN1CCSCC1)N/N=C/c1ccc(F)cc1F ?
active

* * *

Experiment: compound fluorescence in toxin protease inhibitor counterscreen, primary screen, artefact control for toxin protease inhibitor project, biochemical, multiplex microsphere, HTS (AID 624483)
Conditions: compound autofluorescence counterscreen, microsphere flow cytometry
Hit rate of the full screen: of about 360,000 compounds, about 11,000 (3.1%) were called active. Inconclusive results (about 2%) are left out. Cut-off read from the data, not from the text of the source: active = fluorescence intensity above about 16000; inconclusive = no clear call, values can overlap the other calls; inactive = below that. This excerpt belongs to a sample that is enriched for actives.
Write down one outcome, taken from 1 (active), -1 (inactive)

Answered cases to consult:
Cc1cc2c(c(=O)n1Cc1ccco1)C(c1ccccc1)C(C#N)=C(N)O2 (centres undefined)	1
Cc1ccc(-c2ccnc3nc(Sc4ncc(C(F)(F)F)cc4Cl)nn23)cc1	1
CCOC(=O)C1(C(F)(F)F)N=C(N(C)C)OC(N(C)C)=N1	-1
Cc1cccc(NC(=O)N(Cc2cc3cc(C)cc(C)c3[nH]c2=O)CC2COCCO2)c1 (centres undefined)	-1
Cc1ccc(CN2CCN(c3ccccc3Cl)CC2)o1	-1

Could you check what this test reported for CC(=O)NC1=NC(=O)CS1 ?
1

Could you check what this test reported for O=C(Cn1cc(C(F)(F)F)ccc1=O)N/N=C/c1ccc(Cl)cc1Cl ?
-1

Could you check what this test reported for CCCN1Cc2cccc(C(=O)Nc3ccc(S(=O)(=O)N4CCCCCC4)cc3)c2C1=O ?
-1

Could you check what this test reported for Cc1ccc(CNC(=O)c2ccccc2CCc2ccccc2)cc1 ?
-1

Could you check what this test reported for CCOC(=O)C1CCCN(C(=O)c2ccc(C)c(F)c2)CC1 (centres undefined) ?
-1

Could you check what this test reported for O=C1OC(NC(=O)c2ccccc2)C(N2CCOCC2)=C1Cl (centres undefined) ?
1

* * *

Experiment: compound fluorescence in toxin protease inhibitor counterscreen, primary screen, artefact control for toxin protease inhibitor project, biochemical, multiplex microsphere, HTS (AID 624483)
Details: compound autofluorescence counterscreen, microsphere flow cytometry
Screen size: about 360,000 compounds; about 11,000 (3.1%) were called active. About 2% were inconclusive and are not listed. Rule as the data show it: active = fluorescence intensity above about 16000; inconclusive = no clear call, values can overlap the other calls; inactive = below that. For the sample, actives were picked, then their nearest neighbours and some compounds at random.
Write down one outcome, taken from active, inactive

Answered cases to consult:
COc1ccc(CN2CN(C(C)C)CSC2=S)cc1	active
Cc1ccc(/C=N/NC(=O)c2sccc2OCc2ccc(F)cc2)cc1	inactive
CNC(=S)NNC(=O)c1cccn(Cc2ccccc2)c1=O	inactive

Could you check what this test reported for COc1ccc(CN2CN(C3CCCC3)CSC2=S)cc1 ?
inactive

Could you check what this test reported for CNC(=S)NNC(=O)c1sccc1OCc1ccccc1 ?
active

Could you check what this test reported for CCNC(=O)c1cc2c(c(-c3cccc(-c4cncnc4)c3)n1)[C@H](CCO)N(C(C)=O)C2 ?
inactive

Could you check what this test reported for CC(C)(C)OC(=O)N(Cc1ccccc1)Cc1ccc(OCc2cccc(NC(=O)c3ccccc3)c2)cc1 ?
inactive

Could you check what this test reported for COc1ccc(CCC(C)N2CCc3ccccc3C2)cc1 (stereo unspecified) ?
inactive

Sourced from PubChem BioAssay AID624483
